FYI, the data here is from PubChem BioAssay AID2060889.

# Test system: LG0567-F671-PDC complex spheroids viability
# protocol_notes: Anticancer human tumor LG0567-F671-PDC patient-derived lung adenocarcinoma cell line growth inhibition [RAS]
# condition_info: second compound 0.0949 µM; first compound 0.03 µM; hits give low values
endpoint_name: viability, T/C (%)
Give the quantity in %, number only.

For orientation, consider the following solved cases.
molecule	unit_spec	viability, T/C
CC1(C)CCC(Nc2ncc(C(F)(F)F)c(-c3c[nH]c4c(P(C)(C)=O)c(C#N)ccc34)n2)CN1 (centres undefined) + CCn1c(-c2cc(N3CCN(C)CC3)cnc2C(C)OC)c2c3cc(ccc31)-c1csc(n1)CC(NC(=O)C1CC1C)C(=O)N1CCCC(N1)C(=O)OCC(C)(C)C2	%	4.25
CC1(C)CCC(Nc2ncc(C(F)(F)F)c(-c3c[nH]c4c(P(C)(C)=O)c(C#N)ccc34)n2)CN1 (centres undefined) + CCn1c(-c2cccnc2C(C)OC)c2c3cc(ccc31)N1CCOC(CC(NC(=O)C(C(C)C)N(C)C(=O)C3(F)CCN(C(=O)C#CC(C)(C)N(C)C)CC3)C(=O)N3CCCC(N3)C(=O)OCC(C)(C)C2)C1	%	10.3
CCc1c2c(nc3ccc(O)cc13)-c1cc3c(c(=O)n1C2)COC(=O)[C@]3(O)CC + CCn1c(-c2cc(N3CCN(C)CC3)cnc2C(C)OC)c2c3cc(ccc31)-c1csc(n1)CC(NC(=O)C1CC1C)C(=O)N1CCCC(N1)C(=O)OCC(C)(C)C2	%	1.66

Value (viability, T/C, LG0567-F671-PDC complex spheroids viability) for record CCc1c2c(nc3ccc(O)cc13)-c1cc3c(c(=O)n1C2)COC(=O)[C@]3(O)CC + CCn1c(-c2cccnc2C(C)OC)c2c3cc(ccc31)N1CCOC(CC(NC(=O)C(C(C)C)N(C)C(=O)C3(F)CCN(C(=O)C#CC(C)(C)N(C)C)CC3)C(=O)N3CCCC(N3)C(=O)OCC(C)(C)C2)C1 = 6.64

----------
# Test system: LG0567-F671-PDC complex spheroids viability
# protocol_notes: Anticancer human tumor LG0567-F671-PDC cell line growth inhibition [RAS];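 note: spheroids exposed to compound for seven days before readout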
# condition_info: second compound 0.01 µM; first compound 0.1 µM; hits give low values
Reported viability, T/C by item:

For orientation, consider the following solved cases.
compound	viability, T/C
CC1(O)CCCC1n1c(=O)c(C(F)F)cc2cnc(NC3CCN(S(C)(=O)=O)CC3)nc21 (stereo not given) + C=CC(=O)N1CCN(c2nc(OCC3CCCN3C)nc3c(F)c(-c4nc(N)cc(C)c4C(F)(F)F)c(Cl)cc23)C(C)C1	15%
Nc1ccn(C2OC(CO)C(O)C2(F)F)c(=O)n1 (stereo not given) + C=CC(=O)N1CCN(c2nc(OCC3CCCN3C)nc3c(F)c(-c4nc(N)cc(C)c4C(F)(F)F)c(Cl)cc23)C(C)C1	14.3%
CC(C)n1nc(-c2ccc3oc(N)nc3c2)c2c(N)ncnc21 + C=CC(=O)N1CCN(c2nc(OCC3CCCN3C)nc3c(F)c(-c4nc(N)cc(C)c4C(F)(F)F)c(Cl)cc23)C(C)C1	4.67%
O=C(c1ccc(F)c(F)c1Nc1ccc(I)cc1F)N1CC(O)([C@@H]2CCCCN2)C1 + C=CC(=O)N1CCN(c2nc(OCC3CCCN3C)nc3c(F)c(-c4nc(N)cc(C)c4C(F)(F)F)c(Cl)cc23)C(C)C1	5.03%

For reference, reported viability, T/C for CC(=O)OC12COC1CC(O)C1(C)C(=O)C(O)C3=C(C)C(OC(=O)C(O)C(NC(=O)OC(C)(C)C)c4ccccc4)CC(O)(C(OC(=O)c4ccccc4)C21)C3(C)C (stereo not given) + C=CC(=O)N1CCN(c2nc(OCC3CCCN3C)nc3c(F)c(-c4nc(N)cc(C)c4C(F)(F)F)c(Cl)cc23)C(C)C1 stands at 11.3%

----------
# System: LG0567-F671-PDC complex spheroids viability
# protocol_notes: Anticancer human tumor LG0567-F671-PDC cell line growth inhibition [RAS]; active = viability on the fitted dose curve at most 10% of control; inactive = the rest;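 note: spheroids exposed to compound for seven days before readout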
# condition_info: second compound 0.0949 µM; first compound 0.00316 µM
Use one of these outcomes when replying: active, inactive

Please review the following examples before continuing.
molecule	experimental_target	class_label
CCN1CCN(Cc2ccc(Nc3ncc(F)c(-c4cc(F)c5nc(C)n(C(C)C)c5c4)n3)nc2)CC1 + CCn1c(-c2cc(N3CCN(C)CC3)cnc2C(C)OC)c2c3cc(ccc31)-c1csc(n1)CC(NC(=O)C1CC1C)C(=O)N1CCCC(N1)C(=O)OCC(C)(C)C2	LG0567-F671-PDC complex spheroids viability	active
CC(C)n1nc(-c2ccc3oc(N)nc3c2)c2c(N)ncnc21 + CCn1c(-c2cccnc2C(C)OC)c2c3cc(ccc31)N1CCOC(CC(NC(=O)C(C(C)C)N(C)C(=O)C3(F)CCN(C(=O)C#CC(C)(C)N(C)C)CC3)C(=O)N3CCCC(N3)C(=O)OCC(C)(C)C2)C1	LG0567-F671-PDC complex spheroids viability	active
CC(C)n1nc(-c2ccc3oc(N)nc3c2)c2c(N)ncnc21 + CCn1c(-c2cc(N3CCN(C)CC3)cnc2C(C)OC)c2c3cc(ccc31)-c1csc(n1)CC(NC(=O)C1CC1C)C(=O)N1CCCC(N1)C(=O)OCC(C)(C)C2	LG0567-F671-PDC complex spheroids viability	active
O=C(c1ccc(F)c(F)c1Nc1ccc(I)cc1F)N1CC(O)([C@@H]2CCCCN2)C1 + CCn1c(-c2cc(N3CCN(C)CC3)cnc2C(C)OC)c2c3cc(ccc31)-c1csc(n1)CC(NC(=O)C1CC1C)C(=O)N1CCCC(N1)C(=O)OCC(C)(C)C2	LG0567-F671-PDC complex spheroids viability	active
Nc1ccn(C2OC(CO)C(O)C2(F)F)c(=O)n1 (stereo not drawn) + CCn1c(-c2cc(N3CCN(C)CC3)cnc2C(C)OC)c2c3cc(ccc31)-c1csc(n1)CC(NC(=O)C1CC1C)C(=O)N1CCCC(N1)C(=O)OCC(C)(C)C2	LG0567-F671-PDC complex spheroids viability	active

In: Lab log entry: CCN1CCN(Cc2ccc(Nc3ncc(F)c(-c4cc(F)c5nc(C)n(C(C)C)c5c4)n3)nc2)CC1 + CCn1c(-c2cccnc2C(C)OC)c2c3cc(ccc31)N1CCOC(CC(NC(=O)C(C(C)C)N(C)C(=O)C3(F)CCN(C(=O)C#CC(C)(C)N(C)C)CC3)C(=O)N3CCCC(N3)C(=O)OCC(C)(C)C2)C1 — outcome as called in the assay?
Out: inactive

In: Lab log entry: C=CC(=O)Nc1cc(Nc2nccc(-c3cn(C)c4ccccc34)n2)c(OC)cc1N(C)CCN(C)C + CCn1c(-c2cccnc2C(C)OC)c2c3cc(ccc31)N1CCOC(CC(NC(=O)C(C(C)C)N(C)C(=O)C3(F)CCN(C(=O)C#CC(C)(C)N(C)C)CC3)C(=O)N3CCCC(N3)C(=O)OCC(C)(C)C2)C1 — outcome as called in the assay?
Out: inactive

In: Lab log entry: C=CC(=O)N1CCN(c2nc(OCC3CCCN3C)nc3c(F)c(-c4nc(N)cc(C)c4C(F)(F)F)c(Cl)cc23)C(C)C1 (stereo not drawn) + CCn1c(-c2cc(N3CCN(C)CC3)cnc2C(C)OC)c2c3cc(ccc31)-c1csc(n1)CC(NC(=O)C1CC1C)C(=O)N1CCCC(N1)C(=O)OCC(C)(C)C2 — outcome as called in the assay?
Out: active

----------
# System: LG0567-F671-PDC complex spheroids viability
# protocol_notes: Anticancer human tumor LG0567-F671-PDC cell line growth inhibition [RAS]; active = viability on the fitted dose curve at most 10% of control; inactive = the rest;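 note: spheroids exposed to compound for seven days before readout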
# condition_info: second compound 1 µM; first compound 0.1 µM
Use one of these outcomes when replying: active, inactive

molecule	class_label
CC(Nc1ccc2c(c1)OCCn1cc(N3C(=O)OCC3C(F)F)nc1-2)C(N)=O (stereo not drawn) + C=CC(=O)N1CCN(c2nc(OCC3CCCN3C)nc3c(F)c(-c4nc(N)cc(C)c4C(F)(F)F)c(Cl)cc23)C(C)C1	active
O=C(c1ccc(F)c(F)c1Nc1ccc(I)cc1F)N1CC(O)([C@@H]2CCCCN2)C1 + C#Cc1c(F)ccc2cc(O)cc(-c3ncc4c(N5CC6CCC(C5)N6)nc(OCC56CCCN5CC(F)C6)nc4c3F)c12	inactive

Please find the next molecule below.
In: Lab log entry: NC1c2ccccc2OC12CCN(c1cnc3c(N4CCCc5ncccc54)n[nH]c3n1)CC2 (stereo not drawn) + C=CC(=O)N1CCN(c2nc(OCC3CCCN3C)nc3c(F)c(-c4nc(N)cc(C)c4C(F)(F)F)c(Cl)cc23)C(C)C1 — outcome as called in the assay?
Out: active

----------
Reported viability, T/C by item:
# Tested on: LG0567-F671-PDC complex spheroids viability
# protocol_notes: Anticancer human tumor LG0567-F671-PDC cell line growth inhibition [RAS];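 note: spheroids exposed to compound for seven days before readout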
# condition_info: second compound 0.3 µM; first compound 0.00949 µM; hits give low values
# Description: RAS pathway inhibitors in Combinations in Complex Spheroids A high-throughput screen of multi-cell type tumor spheroids was designed to identify active combinations of RAS pathway inhibitors and targeted small molecules. Complex spheroids include a stromal component modeled by human endothelial cells (HUVEC) and fibroblasts modeled by human mesenchymal stem cells (MSCs). […] Compounds. […] If the clinical Cmax for an agent had not been determined, the highest concentration tested was 10 microM. […]
Give the quantity in %, number only.

For orientation, consider the following solved cases.
compound	viability, T/C [%]
CC1(C)CCC(Nc2ncc(C(F)(F)F)c(-c3c[nH]c4c(P(C)(C)=O)c(C#N)ccc34)n2)CN1 (centres undefined) + CCn1c(-c2cc(N3CCN(C)CC3)cnc2C(C)OC)c2c3cc(ccc31)-c1csc(n1)CC(NC(=O)C1CC1C)C(=O)N1CCCC(N1)C(=O)OCC(C)(C)C2	3.44
CCc1c2c(nc3ccc(O)cc13)-c1cc3c(c(=O)n1C2)COC(=O)[C@]3(O)CC + CCn1c(-c2cccnc2C(C)OC)c2c3cc(ccc31)N1CCOC(CC(NC(=O)C(C(C)C)N(C)C(=O)C3(F)CCN(C(=O)C#CC(C)(C)N(C)C)CC3)C(=O)N3CCCC(N3)C(=O)OCC(C)(C)C2)C1	7.66
CC1(C)CCC(Nc2ncc(C(F)(F)F)c(-c3c[nH]c4c(P(C)(C)=O)c(C#N)ccc34)n2)CN1 (centres undefined) + CCn1c(-c2cccnc2C(C)OC)c2c3cc(ccc31)N1CCOC(CC(NC(=O)C(C(C)C)N(C)C(=O)C3(F)CCN(C(=O)C#CC(C)(C)N(C)C)CC3)C(=O)N3CCCC(N3)C(=O)OCC(C)(C)C2)C1	7.86

Now look at this one.
Value (viability, T/C, LG0567-F671-PDC complex spheroids viability) for record CCc1c2c(nc3ccc(O)cc13)-c1cc3c(c(=O)n1C2)COC(=O)[C@]3(O)CC + CCn1c(-c2cc(N3CCN(C)CC3)cnc2C(C)OC)c2c3cc(ccc31)-c1csc(n1)CC(NC(=O)C1CC1C)C(=O)N1CCCC(N1)C(=O)OCC(C)(C)C2 = 2.34
